# subject_of_test: SARS-CoV-2 RBD (receptor binding domain of spike protein of SARS-CoV-2) (SARS-CoV-2, UniProt P0DTC2 319-541)
# assay_overview: ELISA, SARS-CoV-2 RBD coated on the plate, anti-human IgG-HRP, OD450
Property: EC50; scope: individual binders

Antibody 29-2 (antibody, V domains shown) VH: QITLKESGPTLVKPTQTLTLTCTFSGFSLSSSGMGVGWIRQPPGKALEWLALIYWNDDKRYSPSLKSRLTITKDTSKNQVVLTLTNMDPVDTATYYCAHTTLYNNCPFDYWGQGTLVTVSS VL: SYVLTQPPSVSVAPGKTARITCGGNNIGSYSVHWYQQRPGQAPVLVIYYDSDRPSGIPERFSGSNSGNTATLTISRVEAGDEADYYCQVWDNSSNHPWVFGGGTKLTVL    0.0372 µg/mL
Antibody 9-1 (antibody, V domains shown) VH: QLQLQESGPGLVKPSETLSLTCTVSGGSISSSTYYWAWIRQPPGKGLEWIGSIYYSGSTYYNPSLKSRVTISVHTSKNQFSLKLTSVTAADTAVYYCARSMGLHDYWGQGTLVTVSS VL: DIQMTQSPSSLSASVGDRVTITCRASQGIGNSLAWYQQKPGRAPKFLLYAASTLESGVPSRFSGSGSGTHFTLTISSLQPEDFATYFCQQYYSTPPYTFGQGTRLEIK    0.0886 µg/mL

In the following, a different binder is considered.
**Query** // lookup EC50 for Antibody 9-8 (antibody, V domains shown) VH: EVQLVESGGGVVQPGGSLRLSCAASGFTFDDYAIHWVRQAPGKGLEWVSLISGDGGTTYYADFVKGRFTISRDNSKNSLYLQMNSLRTEDTALYYCAKDIPVCSSTICYRFTARLHGMDVWGQGTTVTVSS VL: DIQMTQSPSSLSASVGDRVTITCRASQSISSYLNWYQQKPGKAPKLLIYTASSLQSGVPSRFSGSGSGADFTLTISSLQPEDFATYYCQQRYSTPLTFGGGTKVEIK
**Result** 0.0243 µg/mL
